I'd be grateful if you could share measured % inhibition for these entries.
Test system: human PKK mRNA
Assay: Antisense inhibition of human PKK mRNA in HepaRG cells, 1,000 nM, MOE/deoxy/cEt oligonucleotides (Example 3)
Type: cell-based
Details: PKK mRNA, HepaRG cells, 1,000 nM antisense oligonucleotide; Table 31
Strand notation (5' to 3'): a small letter for the sugar, then the base; units joined by * are phosphorothioate-linked, units joined directly phosphodiester-linked; [ ] holds rarer units or linkages, { } end groups; capitals alone tell only the bases. e = 2'-O-(2-methoxyethyl) (MOE); k = constrained ethyl (cEt); [5mC] = 5-methylcytosine; d = 2'-deoxy (DNA)
Return type: number; implicit unit %.

// query Look up and report measured % inhibition for this entry: 548636 (antisense e[5mC]*eT*k[5mC]*dT*dA*dT*dA*d[5mC]*dA*dG*d[5mC]*dT*dG*kG*kG*e[5mC]) [compound 548636]
// result 5

// query State its % inhibition for this substance: 548629 (antisense e[5mC]*e[5mC]*k[5mC]*dA*dT*d[5mC]*dT*dT*dG*dG*dG*dA*d[5mC]*kT*kT*eT) [compound 548629]
// result 44

// query Name the recorded % inhibition of the substance listed here: 548653 (antisense eT*e[5mC]*kG*dG*d[5mC]*dT*d[5mC]*d[5mC]*dT*dG*dG*d[5mC]*dA*kG*k[5mC]*eA) [compound 548653]
// result 46

----------
Assign percent inhibition of PKK at 1.67 μM to each entry below.
Test system: human PKK mRNA
Assay: Dose-dependent antisense inhibition of human PKK in HepaRG cells, 0.19-5.00 uM (Example 5)
Type: cell-based
Conditions: 1.67 μM, HepaRG cells, electroporation, approximately 16 hours; Table 36
Strand notation (5' to 3'): a small letter for the sugar, then the base; units joined by * are phosphorothioate-linked, units joined directly phosphodiester-linked; [ ] holds rarer units or linkages, { } end groups; capitals alone tell only the bases. e = 2'-O-(2-methoxyethyl) (MOE); [5mC] = 5-methylcytosine; d = 2'-deoxy (DNA)
The response must be a number in % with no trailing unit.

// query Supply recorded percent inhibition of PKK at 1.67 μM for 547293 (antisense e[5mC]*eA*eT*e[5mC]*eT*dG*dG*d[5mC]*dA*dG*dT*dA*dT*dT*dG*eG*eG*e[5mC]*eA*eT) [compound 547293] here.
// result 80

// query Let me know recorded percent inhibition of PKK at 1.67 μM for 548770 (antisense eT*eA*eA*e[5mC]*dA*dG*dT*dA*dT*d[5mC]*dA*d[5mC]*dT*eG*eT*e[5mC]*e[5mC]) [compound 548770] , thanks.
// result 77

// query Provide only the value of recorded percent inhibition of PKK at 1.67 μM for 531231 (eT*eA*eT*e[5mC]*eA*d[5mC]*dT*dG*dT*dA*d[5mC]*dT*dA*dG*dT*eT*eT*e[5mC]*e[5mC]*eT) [compound 531231]
// result 77

// query Report percent inhibition of PKK at 1.67 μM for 546986 (e[5mC]*eA*eG*eG*eA*dT*dA*dG*dA*dA*d[5mC]*dT*dG*dA*dT*eG*eG*eT*e[5mC]*e[5mC]; antisense) [compound 546986]
// result 77

----------
Test system: human PKK mRNA
Assay: Antisense inhibition of human PKK mRNA in HepaRG cells, 3,000 nM (Example 1)
Format: cell-based
Settings: Table 4; HepaRG cells, electroporation with 3,000 nM antisense oligonucleotide, approx. 24 hours; PKK mRNA by RT-PCR (RTS3454), relative to untreated control cells
Strand notation (5' to 3'): a small letter for the sugar, then the base; units joined by * are phosphorothioate-linked, units joined directly phosphodiester-linked; [ ] holds rarer units or linkages, { } end groups; capitals alone tell only the bases. e = 2'-O-(2-methoxyethyl) (MOE); [5mC] = 5-methylcytosine; d = 2'-deoxy (DNA)
measurement name: % inhibition
Don't forget the unit after the value.

// query // fetch % inhibition given entry 531193 (eT*eT*eA*eT*eT*d[5mC]*d[5mC]*d[5mC]*dA*dG*d[5mC]*dT*d[5mC]*dT*dA*eA*eA*eA*eT*eA; antisense) [compound 531193]
// result 23%

// query Please look at this substance and report its % inhibition: 531181 (antisense eG*eG*eT*eT*eG*dA*dG*dG*dG*dA*d[5mC]*dA*dG*dA*d[5mC]*eA*e[5mC]*eA*eG*eG) [compound 531181]
// result 36%

// query For 531217 (eG*eT*eG*eG*eA*dA*dT*dA*dA*dA*d[5mC]*d[5mC]*dA*dT*dA*eA*eT*e[5mC]*eT*eA; antisense) [compound 531217] , write its % inhibition.
// result 47%

// query For the substance 531165 (antisense eG*eT*eA*eA*eT*dA*dA*dA*dA*dG*dG*dA*dA*dT*dG*eA*eT*eA*eA*eA) [compound 531165] , give its reported % inhibition.
// result 0%

// query For the substance 531194 (e[5mC]*eT*e[5mC]*eA*e[5mC]*dA*dA*dT*dT*d[5mC]*dT*dG*dT*dA*dA*eG*eG*eG*eA*eA; antisense) [compound 531194] , give its reported % inhibition.
// result 64%

// query Give % inhibition for the following substance: 531170 (antisense eG*e[5mC]*e[5mC]*eT*eG*dG*d[5mC]*d[5mC]*d[5mC]*d[5mC]*d[5mC]*dA*dA*dG*dA*e[5mC]*eT*e[5mC]*eT*eA) [compound 531170]
// result 54%

// query Entry 531197 (eT*eA*e[5mC]*e[5mC]*eT*dT*dT*dT*d[5mC]*dT*d[5mC]*d[5mC]*dA*dT*dG*eT*e[5mC]*eA*eT*eT; antisense) [compound 531197] needs its % inhibition filled in; supply it.
// result 42%

// query Name the recorded % inhibition of the item 531220 (e[5mC]*eA*eA*eT*eA*d[5mC]*dA*dG*dG*dT*dA*dA*dA*dT*dT*eT*e[5mC]*eA*e[5mC]*eG; antisense) [compound 531220] in your answer.
// result 56%

// query Give the reported value of % inhibition for this record: 531228 (e[5mC]*eA*eG*eA*eG*dT*dA*dA*dA*d[5mC]*dT*d[5mC]*d[5mC]*d[5mC]*d[5mC]*eA*eT*e[5mC]*eT*e[5mC]; antisense) [compound 531228]
// result 33%

// query Please supply the value of reported % inhibition for the item 531189 (eA*eG*eG*eT*eG*dT*dT*d[5mC]*dT*dT*dG*d[5mC]*dT*dT*dA*eT*e[5mC]*e[5mC]*eT*e[5mC]; antisense) [compound 531189]
// result 63%

// query State its % inhibition for this substance: 531202 (eA*eT*eT*eA*eA*dT*dA*dA*dG*d[5mC]*dA*dT*d[5mC]*dT*d[5mC]*eT*e[5mC]*eT*eG*eA; antisense) [compound 531202]
// result 31%
